Test system: TK-10
measurementProtocol: minimum viability across doses, drug + dasatinib, relative to DMSO (fraction); higher = less growth inhibition
conditionsUsed: treatment: drug + dasatinib (fixed dose, not stated); 5 days
measurementType: minimum viability across doses
Write no unit; give the number alone.

## Input Could you please provide reported minimum viability across doses for COc1cc(Nc2ncc(F)c(Nc3ccc4c(n3)NC(=O)C(C)(C)O4)n2)cc(OC)c1OC [R406(free base)] + Cc1nc(Nc2ncc(C(=O)Nc3c(C)cccc3Cl)s2)cc(N2CCN(CCO)CC2)n1 ? Thanks!
## Output 0.348

## Input Respond only with minimum viability across doses recorded for FC(F)(F)c1ccc(/C=C/c2nc(COc3ccc(CCCCn4ccnn4)cc3)co2)cc1 [Mubritinib (TAK 165)] + Cc1nc(Nc2ncc(C(=O)Nc3c(C)cccc3Cl)s2)cc(N2CCN(CCO)CC2)n1
## Output 0.168

## Input Input Cc1c(CN2CCN(C(=O)[C@H](C)O)CC2)sc2c(N3CCOCC3)nc(-c3cnc(N)nc3)nc12 [GDC-0980 (RG7422)] + Cc1nc(Nc2ncc(C(=O)Nc3c(C)cccc3Cl)s2)cc(N2CCN(CCO)CC2)n1 , output reported minimum viability across doses.
## Output 0.0374

## Input Name the recorded minimum viability across doses of the molecule listed here: NC(=O)c1ccc(N(C(N)=O)c2c(F)cccc2F)nc1-c1ccc(F)cc1F [VX-702] + Cc1nc(Nc2ncc(C(=O)Nc3c(C)cccc3Cl)s2)cc(N2CCN(CCO)CC2)n1
## Output 0.598

* * *

For each entry below, report its GI50 of drug value.
Test system: 786-O
measurementProtocol: GI50 of drug in presence of dasatinib; higher = less potent
conditionsUsed: treatment: drug + dasatinib (fixed dose, not stated); 5 days
I only need the number, in µM, no unit after it.

## Input Check the records and state GI50 of drug for CCS(=O)(=O)N1CC(CC#N)(n2cc(-c3ncnc4[nH]ccc34)cn2)C1 + Cc1nc(Nc2ncc(C(=O)Nc3c(C)cccc3Cl)s2)cc(N2CCN(CCO)CC2)n1 [dasatinib]
## Output 6.65

## Input Retrieve GI50 of drug measured for CC[C@H](CO)Nc1nc(NCc2ccccc2)c2ncn(C(C)C)c2n1 [Roscovitine (Seliciclib, CYC202)] + Cc1nc(Nc2ncc(C(=O)Nc3c(C)cccc3Cl)s2)cc(N2CCN(CCO)CC2)n1 [dasatinib] and print it.
## Output 4.9

## Input Input CC(=O)Nc1nc(C)c(-c2ccc(Cl)c(S(=O)(=O)NCCO)c2)s1 [PIK-93] + Cc1nc(Nc2ncc(C(=O)Nc3c(C)cccc3Cl)s2)cc(N2CCN(CCO)CC2)n1 [dasatinib] , output reported GI50 of drug.
## Output 0.135

## Input In one line, give reported GI50 of drug of the entry C[C@@H]1CN(CC(=O)Nc2ccc3c(c2)Cc2cccc(-c4cc(=O)cc(N5CCOCC5)o4)c2S3)C[C@H](C)O1 + Cc1nc(Nc2ncc(C(=O)Nc3c(C)cccc3Cl)s2)cc(N2CCN(CCO)CC2)n1 [dasatinib] .
## Output 3.47

* * *

Tested on: CAKI-1
measurementProtocol: GI50, drug alone; higher = less potent
conditionsUsed: treatment: drug alone; 5 days
API: label(entry) gives true (1) if the entry's GI50, drug alone is strictly smaller than 3000 nM; on equality or larger values it gives false (0).

## Input Given "O=C(NCCCNc1nc(Nc2cccc(NC(=O)N3CCCC3)c2)ncc1I)c1cccs1" , is recorded GI50, drug alone strictly lower than 3000 nM?
## Output true (1)

## Input I'd appreciate it if you could check whether "CC(C)(C)c1nc(-c2cccc(NS(=O)(=O)c3c(F)cccc3F)c2F)c(-c2ccnc(N)n2)s1" has GI50, drug alone smaller than 3000 nM.
## Output true (1)

## Input Determine if "CNC(=O)c1cc(Oc2ccc(NC(=O)Nc3ccc(Cl)c(C(F)(F)F)c3)c(F)c2)ccn1" shows GI50, drug alone strictly lower than 3000 nM.
## Output false (0)

## Input Hello, I'm reviewing records and need to know if GI50, drug alone of "CNC(=O)CN1CCC(Oc2cc3c(Nc4cccc(Cl)c4F)ncnc3cc2OC)CC1" is below 3000 nM. Could you check?
## Output false (0)

## Input # check: GI50, drug alone < 3000 nM for "c1ccc2c(CCNc3ccc(Nc4ccncc4)cc3)c[nH]c2c1"
## Output true (1)

## Input In the record for "O=C(O)[C@]1(Cc2cccc(Nc3nccs3)n2)CC[C@@H](Oc2cccc(Cl)c2F)CC1" , is GI50, drug alone less than 3000 nM?
## Output false (0)

## Input Criterion: GI50, drug alone strictly below 3000 nM. Is it met by "COc1ccc(-c2ccc3ncc4c(c3c2)n(-c2ccc(N3CCNCC3)c(C(F)(F)F)c2)c(=O)n4C)cn1.O=C(O)/C=C\C(=O)O" ?
## Output true (1)

Cited source for all entries: the supplement of paper PMC8149375
